- measurementDescription: PET hydrolysis, aromatic products released after 48 h (umol product/mg enzyme); higher = more PET depolymerization activity
- settings: substrate: cryPow; 60 °C; pH 4.5
propertyLabel: PET hydrolysis

The cases that follow already have their PET hydrolysis on record.
ADNPYERGPNPTESLIEAARGPFATSQTTVSSLSVTGFGGGVIYYPTDTSQGTFGGIAISPGYTAAWSSLDWLGPRLASHGFVVIGIETNTRLDQPASRGDQLLAALDYLTQRSSVRSRVDATRLAVAGHSMGGGGSLEAAKDRTSLKAAIPLAPWNTDKTWPEVRTPTLIIGGESDTVAPVSSHSIPFYTSLTSAREKAYLELDNASHFFPQTSNTTMAKYMISWMKRYIDNDTRYEQFLCPGPSTGLLSGISDWRQTCPGS [TEP073] = < 3
MLTITVATGSASAADNPYQRGPDPTRTSVTAVNGPFANTSVSVPTGYGFNGGRIYYPTDTSQGTFGAIAISPGYTALFSAELAWMGPWLASHGFVVIGIETNSRNDFDTARGTQLLAALDYLTQQSPVRDRVDPNRLAVAGHSMGGGGALSAATRRSSLKAVVGIAPYSPSSNLANDRVPTMIFAGQADTVVTPSYATGLYNSLPTTTESAYLEVAGADHGFMVGRSNPVMVRTMLPFVKMFIDNDARYSQFLCPLLDSSGVVTYRSTCPLLPSTPPTSTPTPTDPPTPTPTPTVPPGSASEIVGTQSSRCIDVPNASRNNGTRVQLYDCNKQTNQA [ESM121] = < 3
QYQKGPDPTVSALERTGSFATRTTTVSRTSASGFGGGTIYYPTASGSYGAIAISPGFTAYQSSISWMGTRLASHGFVVITIDTITTSDQPDSRGRQLKAALDKVVSLSRSSSSPIYNKVDTTRLAVAGHSMGGGGTLAAARDYPSLKAAVPLAPWHTTKSWSRVTVPTLIIGGSTDTIASVGLHSIPFYTSLPSSTNKAYMELSGEGHFFPQTSSNYPLVGRYMISWFKRFVDGDSRYSPFLCGAQHQADLGLFSDISDYRENCPY [ESM169] = < 3
ADNPYQRGPDPTPASIAADHGPFATAQTTIPKGNGLGGGIVYYPTDTSQGTFGAIAIAPGYGTEWRWYGWLGPRLASFGFVVVGIETNSLSDYADARADQLLAALDWLVTSSPVRDRVDRTRLAVGGHSMGGGGALVAATRRPSLRSAVGMAPYVPDGILRGTSVPTILFGGQADTTVTPAYLASAYATIPATVPRAYPEIAGEGHGFAAGGGGGNSGAFARVMMVWLKVFVDADTRYPPFLCPTLSNTSGISKYQASCPLGPGGTIPPPDTSRLANANAGRCLDASGAGTANGTKVILWTCNHGANQQWNRT [ESM139] = < 3

Shifting focus to the sequence that follows.
Task item: So what's the measured PET hydrolysis for this one? NPYERGPDPTTASIEASRGSFATSTVTVSRLAVSGFGGGTIYYPTTTTAGTFGAISIAPGFTATQSSMAWLGPRLASQGFVVFTIDTITTSDQPDSRGRQLLASLDYLTQQSSVRSRIDSSRLGVVGHSMGGGGTLEAARSRPSLQAAVPLTGWNLTKNWSTLRVPTLVVGAQSDTIAPVASHSIPFYTSLPSTLDRAYLELRGASHFAPNTSNTTIAKYTLSWLKRFIDNDTRYEQFLCPIPSSSLSISDYRGNCPHNG [ESM167]
Reply: < 3

====

- measurementDescription: melting temperature (DSF); higher = more thermostable
propertyLabel: melting temperature (C)
// units = C; emit number, no label

The cases that follow already have their melting temperature on record.
DQIGQAPTASNITGNGSFATTSASISSTVSGFGGGRVYYPTAAGTYPVIAISPGFTATWSSLAWIGPRLSSWGFVVVGIETNSIYDQPASRGNQLLAALNWAVNSSPTAVRSHVDGSRRGVAGHSMGGGGTLEALAADTTGLVKAGVPLAPWNTDKTWNNVSEPVLIVGGQADTVAPVASHSIPFYNTLAGPKTYVELTGQSHFFPQTTNATASRALVAWFKRWVSQDSRFTPFTCGFSGVAVSDFRSNAC [ESM082] = 67.6
MPPPPPPPPPVQTVTVEPGYGFGGGTIYYPQESTGRLPVVAAVPGFTETQEAVAWYGPLLARRGNIVITIDTISPTNAPKTRADQALAAIDYVVTQSAVSDIADASRTAVMGHSMGGGASLFAALKRPTLKAIVPLAPWARTTDFSGVAVPTLIVGCENDGIAAVGTYAEPFYESIPATTPKAYLEMAGGNHYCTNSEDPVIAGYVSAWTDRFLKGDTTASSRLCPPSPVGPISEYRSNCPY [TEP189] = 67
DQVGQAPTADNITGNGSFATTSAAITNQTGFGGGTVYYPTADGTYPVVAIVPGFAATWSQISWLGPRVASWGFVVVGVDTTSVFDSPQQRGDEFLAALNWAANSAPASTRGKVDGTRRGVAGWSMGGGGTLEAMAKDTTLKAGVPLAPWDTTQDWSKIGKPVFIVGAQNDLIAPPASHAIPFYNSLAGPKSYLELAGADHFFPISANPTVSRAVVSWFKRFVSADDRFAPFTCGFAGAAVSAFRTTAC [TEP103] = 71.8
AANPYERGPAPTAASIAATTGPFAVASVSVPRGNGFGGGVIYYPTSTSQGTFGGVAISPGLNGTWAGIAWLGPRLASQGFVIFGIETNNLNDSPASRGTQLLAALDFLTRSSSVRTRVDASRLAVAGHSMGGGGALSAALQRPSLQAAIGNAPHLPSGSLATDRVPTLIYAMQNDTLVTPSRLTSLYNSMPATTERAYIEVAGAGHNYIGQPSTTLARTMIPWLKIFVDNDARYSQFLCPLSNQSGISQYRNSCPLISTTTLSTGVDSTSGLAVR [ESM157] = 61

Task item: So what's the measured melting temperature for this one? ASPYERGPDPTDSILEASRGPFATSQLSVSSLSVSGFGGGTVYYPTDTSQGTFGAIAISPGYTARWSSLAWLGPRIASHGFVVIGIETNTIYDQPASRGRQLLAALDYLTSSSPSTVRSRIDASRLAVAGHSMGGGGTLEAANDRPSLQAAVPLAPWNLTKIWSGVRVPTMIIGGEADTVAPVASHSEPFYQSIPSSVEKAYLELNNASHFFPQTTNTTMAKSMVAWLKRFVDDDTRYDQFLCPAPRGLAIQEYRDTCPIS [TEP144]
Reply: 46.6

Task item: So what's the measured melting temperature for this one? QPTLESLGNPGPYQVAYYDQLPEVDEYGAATLYFPANRGTDFGGVAIAPGFIEQQENIEWWGRHLASYGFAVLVLDTNNPRDDPQVRSEALLAALDVIRGEGARSGSPIRGKILNDRMAVMGHSMGGGGTLLAANRASDQLKAIIPFTPWLPNADFSSVAVPTLVLAGEVDRIASVAEHAWPHFQTLPEGIPRMYVEIAGGNHFIANSTTDQERLNPNIDVHDLVGALGVAWLKYFVDGDEDYRDLIYGELPAEQRARLSRFEFVQ [TEP107]
Reply: 44.5

====

List of PET hydrolysis values.
- measurementDescription: PET hydrolysis, aromatic products released after 48 h (umol product/mg enzyme); higher = more PET depolymerization activity
- settings: substrate: cryPow; 40 °C; pH 6.5
Give your answer as a number; write no unit.

The cases that follow already have their PET hydrolysis on record.
QYQKGPDPTTSSLERAGSFATRTISVSSLAASGFGGGRIYYPTASGSYGVIAVSPGYTGTASTMYFWGERLSSHGFVVIVIETNTLLDQPGSRANQLMAALNYTVSQGNSRTSALYGKVDGNRRGVAGHSMGGGGTLIAAADNASLKAAVPMAPWNLSSLSFRGIRVPTMIFGCQSDAIAPVNTHAVPFYNAIPSSTKKGYVEMRLDDHFCVMNGGGHYETLGKLGISWFKRFIDEDTRYSKFLCGTEYNATVRSTEVSDSKNNCPY [DP039] = 3
ASPYERGPNPTAASVSATTGPFAIASVSVARGNGFGGGVIYYPTATNQGTFGGIAISPGLNGTWAGIAWLGPRLASQGFVVFGIETNNLNDSPTSRGTQLLAALDYLTQRSTVRTRVDAGRLAVMGHSMGGGGALDAALRRPSLQAAIGNAPHLPSGTLSNDRVPTMIYAMQNDTLVPPSRLTTLYNSIPATTERGYILVTGAGHNYIGQPSTTLARTMIPWFKIFIDDDTRYSQFLCPMSNQSGISQYRNSCPLS [ESM160] = 43.5

Shifting focus to the sequence that follows.
Task item: So what's the measured PET hydrolysis for this one? DQVGQAPTADNITGNGSFATTSAAITNQTGFGGGTVYYPTADGTYPVVAIVPGFAATWSQISWLGPRVASWGFVVVGVDTTSVFDSPQQRGDEFLAALNWAANSAPASTRGKVDGTRRGVAGWSMGGGGTLEAMAKDTTLKAGVPLAPWDTTQDWSKIGKPVFIVGAQNDLIAPPASHAIPFYNSLAGPKSYLELAGADHFFPISANPTVSRAVVSWFKRFVSADDRFAPFTCGFAGAAVSAFRTTAC [TEP103]
Reply: 71

meta.source: the supplement of paper PMC12455559
